tested_on: T1, IL-18 receptors on HEK-Blue IL-18 reporter cells (UniProt Q13478 19-541; O95256 20-599, limits assumed)
T1 sequence (looked up) 1: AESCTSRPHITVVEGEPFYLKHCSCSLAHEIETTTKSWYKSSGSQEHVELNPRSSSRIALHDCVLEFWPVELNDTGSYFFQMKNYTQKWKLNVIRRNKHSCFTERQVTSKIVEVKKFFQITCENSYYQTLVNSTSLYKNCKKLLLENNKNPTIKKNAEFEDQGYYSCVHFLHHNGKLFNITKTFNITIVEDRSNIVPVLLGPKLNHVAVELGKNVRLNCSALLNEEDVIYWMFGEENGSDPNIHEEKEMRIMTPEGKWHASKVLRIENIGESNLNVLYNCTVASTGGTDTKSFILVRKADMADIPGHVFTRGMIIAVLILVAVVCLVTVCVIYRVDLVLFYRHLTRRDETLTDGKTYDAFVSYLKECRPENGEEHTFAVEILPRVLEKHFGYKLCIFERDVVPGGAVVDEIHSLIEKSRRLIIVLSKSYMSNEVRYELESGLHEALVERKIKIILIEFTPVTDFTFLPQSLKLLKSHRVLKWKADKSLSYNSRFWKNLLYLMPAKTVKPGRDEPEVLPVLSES
T1 sequence (looked up) 2: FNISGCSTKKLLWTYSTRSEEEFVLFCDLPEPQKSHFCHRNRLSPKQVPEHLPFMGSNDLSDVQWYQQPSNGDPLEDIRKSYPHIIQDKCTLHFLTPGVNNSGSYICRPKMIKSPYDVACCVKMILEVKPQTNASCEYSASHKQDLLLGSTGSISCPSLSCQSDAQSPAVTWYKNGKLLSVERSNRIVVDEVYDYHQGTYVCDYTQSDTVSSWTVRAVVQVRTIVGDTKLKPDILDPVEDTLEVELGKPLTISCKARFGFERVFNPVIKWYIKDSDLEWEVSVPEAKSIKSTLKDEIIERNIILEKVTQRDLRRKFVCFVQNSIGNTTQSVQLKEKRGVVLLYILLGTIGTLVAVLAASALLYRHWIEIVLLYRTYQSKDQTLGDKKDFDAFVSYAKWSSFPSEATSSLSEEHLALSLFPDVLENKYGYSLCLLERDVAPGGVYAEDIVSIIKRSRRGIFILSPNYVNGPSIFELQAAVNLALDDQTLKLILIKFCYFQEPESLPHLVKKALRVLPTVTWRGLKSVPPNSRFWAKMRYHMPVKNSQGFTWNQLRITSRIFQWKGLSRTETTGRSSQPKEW
measurement_notes: cell-based or functional assay; further: unit not given here

binder	HEK-Blue activity, No BP, DF-10000
yeast display IL-18 variant K53S, S55G (ligand) YFGKLESKLSVIRNLNDQVLFIDQGNRPLFEDMTDSDMRDNAPRTIFIISMYSDGQPRGMAVTISVKSEKISTLSSENKIISFKEMNPPDNIKDTKSDIIFFQRSVPGHDNKMQFESSSYEGYFLASEKERDLFKLILKKEDELGDRSIMFTVQNED	1.71
yeast display IL-18 variant K53N, S55I (ligand) YFGKLESKLSVIRNLNDQVLFIDQGNRPLFEDMTDSDMRDNAPRTIFIISMYNDIQPRGMAVTISVKSEKISTLSSENKIISFKEMNPPDNIKDTKSDIIFFQRSVPGHDNKMQFESSSYEGYFLASEKERDLFKLILKKEDELGDRSIMFTVQNED	0.32
